Reference source for all entries: patent US20190224279A1

// p-Smad1/5/8 (%) lookup, one value per entry
# TARGET ENTITY: growth factor receptors
# METHOD: cell-based or functional assay
No end group written: not given here.
ENDPOINT LABEL: p-Smad1/5/8 (%)

| BINDER | ENDPOINT LABEL | MEASURED VALUE |
| --- | --- | --- |
| APTQLSAISTLYLEIVRKKPLKNYQFLQHNK (not fully specified) [GFR-binding compound of SEQ ID NO: 77] | p-Smad1/5/8 (%) | 52 |
| VPTEESNITTQIMRIKPHQGQHIGEMSFLQH (not fully specified) [GFR-binding compound of SEQ ID NO: 69] | p-Smad1/5/8 (%) | 32 |
| VPQALSPISILYIDDMGVPTYKQYEEGMSVAE (not fully specified) [GFR-binding compound of SEQ ID NO: 68] | p-Smad1/5/8 (%) | 39 |
